Assay Remarks: NCI Yeast Anticancer Drug Screen. Data for the bub3 strain (AID 167)
Particulars: S. cerevisiae bub3 mutant strain, at 50.0 µM, hits give high values
About 79,000 compounds went through this panel and 15% of them were active in at least one assay; those are over-represented in the sample as a whole.
Overview of reported growth inhibition across a group of compounds:
Kindly answer with a numeric value in %, unit omitted.

Known results for compounds:
O=c1[nH]c2c([N+](=O)[O-])cccc2c2ccccc12 :: 95
O=C(/C(=C/c1ccc(O)cc1)c1ccccc1)c1ccccc1 :: 91.3
COc1cccc(/C=C2\S/C(=N/Nc3nc(-c4ccc([N+](=O)[O-])cc4)cs3)NC2=O)c1O :: 97
CC(C)(CN1CCCCC1)C(=O)/C=C/c1c(Cl)cccc1Cl :: 88.8
Nc1ccc2cc(Br)ccc2c1Br :: 88.5
CCCCN(CCCC)c1ccc(N=Nc2ccc(S(=O)(=O)O)cc2)cc1 :: 89.8

stdin: Look up growth inhibition for this compound: BrC1C2CCC3OC3C12 (stereo unspecified)
stdout: 99.3

stdin: Look up growth inhibition for this compound: O=[N+]([O-])c1ccc(/C=C\c2ccc3c(c2)OCO3)c([N+](=O)[O-])c1
stdout: 99

stdin: Look up growth inhibition for this compound: COC(=O)c1ccccc1N=NNc1cccc(SC)c1
stdout: 85.9

stdin: Look up growth inhibition for this compound: O=C(Cc1ccccc1)NN1C(=O)C(Cl)C1c1cc(Br)cc(Br)c1O (stereo unspecified)
stdout: 97

stdin: Look up growth inhibition for this compound: CC/C(=C(\c1ccccc1)c1ccc(OCC[N+](C)(C)C)cc1)c1ccccc1
stdout: 91.5

* * *

Assay Remarks: NCI Yeast Anticancer Drug Screen. Data for the mec2-1 strain (AID 157)
Particulars: S. cerevisiae mec2-1 strain, at 33.0 µM
Description: Growth inhibition of yeast strains with defined genetic alterations is measured as a screen for potential anti-cancer activity. Selected strains with alterations in DNA damage repair or cell cycle control were exposed to compounds and growth inhibition was measured relative to vehicle treated controls. The strain used in this assay is mec2-1
Compounds without any hit were thinned out: in the full panel of roughly 79,000, 15% have a hit. Calls of active or inactive are those of the source. No stated cut-off is given here; in the data, active means growth inhibition above about 70%; inactive means the rest.
Reply using exactly one outcome from active, inactive

The following molecules have reported results that may help.
O=C(CN(c1ccccc1)c1ccccc1)n1nnc2ccccc21 :: inactive
O=C(Cc1ccccc1)NNc1nc(NNC(=O)c2ccncc2)nc(Nc2ccc(Cl)cc2)n1 :: inactive
S=C(NCc1ccccn1)N/N=C/c1ccccn1 :: active
COc1ccc(C(OCC2OC(n3cnc4c(=O)n(Cc5ccccc5[N+](=O)[O-])nnc43)C(O)C2O)(c2ccccc2)c2ccc(OC)cc2)cc1 (stereo not given) :: inactive
CCCCCCNCCCNc1c2cc(OC)ccc2nc2cccc([N+](=O)[O-])c12 :: active
Cc1c(C(=O)/C=C/c2ccccc2[N+](=O)[O-])[n+](=O)c2ccccc2n1[O-] :: active

stdin: GET /call?item= O=C1C=C(Br)C(=O)c2ccccc21 returns the recorded outcome of this test.
stdout: active

stdin: GET /call?item= N#CCC(=O)N/N=C(\c1ccccc1)C(c1ccccc1)C1(O)C(=O)Nc2c(Cl)ccc(Cl)c21 (stereo not given) returns the recorded outcome of this test.
stdout: inactive

stdin: GET /call?item= CCS(=O)(=O)Nc1ccc(Nc2c3ccccc3nc3ccccc23)c(OC)c1 returns the recorded outcome of this test.
stdout: inactive

stdin: GET /call?item= CN1CCN(C(=O)c2cccc3cccc(C(=O)O)c23)CC1 returns the recorded outcome of this test.
stdout: inactive
